pIC50: −log10 of the molar value.
Record: compiled pIC50 on BDNF/NT-3 growth factors receptor (Homo sapiens, UniProt Q16620) from multiple reports.
Sequence (Q16620 whole entry): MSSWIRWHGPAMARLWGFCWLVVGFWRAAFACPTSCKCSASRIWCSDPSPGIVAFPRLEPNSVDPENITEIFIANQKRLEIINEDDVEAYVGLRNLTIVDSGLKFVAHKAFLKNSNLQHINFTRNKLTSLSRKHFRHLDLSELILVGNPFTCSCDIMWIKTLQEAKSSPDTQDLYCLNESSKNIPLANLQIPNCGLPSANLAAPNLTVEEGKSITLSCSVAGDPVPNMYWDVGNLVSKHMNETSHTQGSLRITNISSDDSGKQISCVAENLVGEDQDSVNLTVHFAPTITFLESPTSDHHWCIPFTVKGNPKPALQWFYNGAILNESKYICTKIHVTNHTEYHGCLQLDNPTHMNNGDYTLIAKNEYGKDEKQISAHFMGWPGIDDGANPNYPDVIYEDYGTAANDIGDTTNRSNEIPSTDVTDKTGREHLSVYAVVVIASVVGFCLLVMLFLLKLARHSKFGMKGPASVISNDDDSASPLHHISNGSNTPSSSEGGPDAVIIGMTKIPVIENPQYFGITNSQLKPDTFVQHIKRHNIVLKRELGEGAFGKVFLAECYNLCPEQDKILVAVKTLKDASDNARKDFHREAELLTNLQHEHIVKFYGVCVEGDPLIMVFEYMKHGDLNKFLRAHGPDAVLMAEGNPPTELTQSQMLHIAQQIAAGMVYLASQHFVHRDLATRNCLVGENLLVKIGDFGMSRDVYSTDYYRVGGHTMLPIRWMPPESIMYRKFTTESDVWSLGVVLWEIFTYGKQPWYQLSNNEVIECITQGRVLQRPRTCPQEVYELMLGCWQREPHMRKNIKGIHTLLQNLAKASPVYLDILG

# CHEMICAL STRING, EXPERIMENTAL VALUE
rows = [
    ("CC1(C)Oc2c(ncnc2Nc2ccc(NC(=O)Nc3ccc(F)c(F)c3)cc2)NC1=O", "< 5.00"),
    ("CN(C)c1nc2ccc1CCCn1cc(c3ccccc31)C1=C(C(=O)NC1=O)c1cn(c3ccccc13)CC2", "< 5.52"),
    ("COc1ccc(Cl)cc1NC(=O)Nc1ccc2nc(NC(=O)c3ccccc3)sc2c1", "< 4.70"),
    ("COc1ccc(-n2ncc3c(=O)n(CC(=O)Nc4cc(C(F)(F)F)ccc4Cl)cnc32)cc1", "< 4.70"),
]

Req: If you can, please state the reported pIC50 value of NC(=O)c1ccc(-c2nnn(CC(=O)Nc3cc(C(F)(F)F)ccc3-n3cncn3)n2)cc1 .
Resp: < 4.70

Req: Similarly, Fc1cc(F)cc(OCc2ccc3[nH]nc(/C=C/c4ccccn4)c3c2)c1 ?
Resp: 8.14

Req: Lookup CC(C)(C)NC(=O)Nc1ccc(Nc2ncnc3c2OC(C)(C)C(=O)N3)cc1
Resp: < 5.00

Req: Can you handle CC1(C)Oc2c(ncnc2Nc2ccc(NC(=O)Nc3cccc(F)c3)cc2)NC1=O next?
Resp: < 5.00

Req: Entry Fc1cc(F)cc(CCc2ccc3[nH]nc(/C=C/c4ccccn4)c3c2)c1 please
Resp: 8.07

Req: Consider next the compound Cc1ncc(-c2ccccc2)c(NC(=O)NC2c3ccccc3-c3ccccc32)n1 in the same way.
Resp: < 4.09
